Target: Peroxisome proliferator-activated receptor gamma (Homo sapiens)
Assay: Agonist activity at PPARgamma in human HepG2 cells assessed as activation of PPRE at 10 ug/ml incubated for 24 hrs by dual luciferase reporter gene assay relative to pioglitazone
Type: cell-based
attributeMeasured: Activity (%)

| smiles | systemName | assayValue |
| --- | --- | --- |
| O=C(Cn1cnc2ccccc21)Nc1cccc([C@H](NC(=O)OCc2ccccc2)C(=O)O)c1 | Peroxisome proliferator-activated receptor gamma (Homo sapiens) | 4.3 |
| COC(=O)[C@@H](NC(=O)OCc1ccccc1)c1cccc(NC(=O)CNc2ccc(S(=O)(=O)Nc3cc(C)on3)cc2)c1 | Peroxisome proliferator-activated receptor gamma (Homo sapiens) | 27.9 |
| CCCOC(=O)[C@@H](NC(=O)OCc1ccccc1)c1cccc(NC(=O)CCl)c1 | Peroxisome proliferator-activated receptor gamma (Homo sapiens) | -17.1 |

(A) COC(=O)[C@@H](NC(=O)OCc1ccccc1)c1cccc(NC(=O)Cn2nnnc2SC)c1
(B) O=C(CN1C(=O)c2ccccc2C1=O)Nc1cccc([C@H](NC(=O)OCc2ccccc2)C(=O)O)c1
(C) COC(=O)[C@@H](NC(=O)OCc1ccccc1)c1cccc(NC(=O)CSc2nc3ccccc3[nH]2)c1
Arrange the 3 entries by Activity so the values rise. Rank them, then answer with their labels in that order. C, A, B
(C: -9.41%, A: 22.4%, B: 47.4%)
